target: Fuc(a1-2)[GalNAc(a1-4)]Gal(b1-4)GlcNAc; assay: glycan array binding signal (z-score within array); higher = stronger binding; settings: glycan notation: IUPAC condensed, linker removed
Many of the other results were omitted from the sample, so the strongest signals are more common in it than they were.
Property: glycan array binding signal (z-score)
Answers are plain numbers.

These solved cases illustrate the format of a correct answer.
[
  {
    "Binder": "Epa7 (Candida glabrata), Q6DTM6_CANGB (protein) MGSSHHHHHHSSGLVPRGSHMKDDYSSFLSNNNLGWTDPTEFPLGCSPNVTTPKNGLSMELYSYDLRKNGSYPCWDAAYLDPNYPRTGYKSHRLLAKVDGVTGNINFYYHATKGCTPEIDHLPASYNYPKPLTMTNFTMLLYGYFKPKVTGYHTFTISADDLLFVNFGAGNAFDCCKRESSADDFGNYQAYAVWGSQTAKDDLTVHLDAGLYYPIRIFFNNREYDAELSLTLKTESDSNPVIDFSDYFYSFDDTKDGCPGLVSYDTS",
    "Reading": -0.256
  },
  {
    "Binder": "LecB LY19 (Pseudomonas aeruginosa) (protein) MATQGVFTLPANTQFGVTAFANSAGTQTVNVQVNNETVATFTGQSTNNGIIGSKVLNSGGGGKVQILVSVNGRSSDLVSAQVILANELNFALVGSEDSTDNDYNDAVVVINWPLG",
    "Reading": 2.12
  }
]

Attention now shifts to the item below.
Need glycan array binding signal (z-score), item CBM32-5 (Clostridium perfringens) (protein) MGSSHHHHHHSSGLVPRGSHMASALPQGNMKATATSEHPDVGNEGLAKFAIDGKENTIWHTKYNPVEELPQSITLELGGSYEINKFTYLPRSGAKNGNITKYELHVSEDGNNFRKISEGNWDDSGSLKTLKFNSTKATHVKLVALEGVGGFASAAELNVFA
9.74

Values compiled from the supplement of paper PMC8728848.
